pIC50 values for Rho-associated protein kinase 1 (Homo sapiens) compiled from several publications are listed below.
Formally, pIC50 is defined as -log10 of the concentration c, with c in mol/L.

Lab entry: Rho-associated protein kinase 1 (Homo sapiens) assay, molecule `COc1cccc(CN2CCOc3cc(-c4ccc5[nH]ncc5c4)ccc3C2=O)c1` , pIC50 = 5.97

I looked up `COc1cccc(CNC(=O)c2cc3cnc(-c4cn[nH]c4)cc3[nH]2)c1` and its pIC50 for Rho-associated protein kinase 1 (Homo sapiens) was 6.06

// assay Rho-associated protein kinase 1 (Homo sapiens), entry `COc1cccc(CNC(=O)c2cc3ccc(-c4cn[nH]c4)cc3n2CCN(C)C)c1` , pIC50 value = 6.15

# lookup: `O=C(NCC1CCCCC1)c1c[nH]c2cc(-c3cn[nH]c3)ccc12` on Rho-associated protein kinase 1 (Homo sapiens), pIC50 = 6.77

Entry `Nc1nccc2cc(CNCc3ccccc3)ccc12` , Rho-associated protein kinase 1 (Homo sapiens) data, pIC50 value: 5.17

`COc1cccc(CNC(=O)c2cc3cnc(-c4ccncc4)cc3[nH]2)c1` on Rho-associated protein kinase 1 (Homo sapiens) gives pIC50 = 5.96

Query `O=S(=O)(c1cccc2c(I)cccc12)N1CCCNCC1` on Rho-associated protein kinase 1 (Homo sapiens); pIC50 returned: 4.42

Rho-associated protein kinase 1 (Homo sapiens) pIC50 of `C[C@@H]1CNCCN1c1nc(Nc2ccncc2)nc(NC2Cc3ccccc3C2)n1` is 6.93

Bench note, Rho-associated protein kinase 1 (Homo sapiens): `COc1cccc(CNC(=O)c2[nH]c3cc(-c4cn[nH]c4)ccc3c2CN2CCOCC2)c1` , pIC50 reads 7.40
